study_system: ER (Homo sapiens)
Construct: This cell line was stably transfected with the luciferase reporter gene and estrogen-responsive element derived from the Xenopus vitellogenin A2 gene; endogenous in cells
Sequence (P03372 1-595): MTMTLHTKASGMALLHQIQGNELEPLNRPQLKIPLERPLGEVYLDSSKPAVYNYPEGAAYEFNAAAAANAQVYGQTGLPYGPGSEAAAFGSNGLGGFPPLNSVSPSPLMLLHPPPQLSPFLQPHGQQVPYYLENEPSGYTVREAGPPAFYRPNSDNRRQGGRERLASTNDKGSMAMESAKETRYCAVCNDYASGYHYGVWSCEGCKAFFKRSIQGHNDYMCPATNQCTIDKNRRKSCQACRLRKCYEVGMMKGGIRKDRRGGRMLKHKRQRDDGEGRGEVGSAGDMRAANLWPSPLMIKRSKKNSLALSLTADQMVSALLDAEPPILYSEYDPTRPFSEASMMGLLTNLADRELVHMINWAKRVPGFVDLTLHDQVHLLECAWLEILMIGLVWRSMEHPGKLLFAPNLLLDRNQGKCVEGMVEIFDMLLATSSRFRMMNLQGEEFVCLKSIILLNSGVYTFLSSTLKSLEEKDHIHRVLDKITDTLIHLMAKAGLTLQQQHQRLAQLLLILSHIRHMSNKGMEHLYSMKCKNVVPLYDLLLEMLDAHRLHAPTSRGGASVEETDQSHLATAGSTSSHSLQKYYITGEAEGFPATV
experimental_details: MVLN assay (estrogen-responsive luciferase reporter transactivation)
# reported log10(EC50); entries follow
property_measured: log10(EC50) (log10 of the value in µM)

# compound, property_measured, numeric_result
records = [
    ("FC(F)(I)C(F)(F)C(F)(F)C(F)(F)C(F)(F)C(F)(F)I [PFHxDI, Dodecafluoro-1,6-diiodohexane]", "log10(EC50)", 0.05),
    ("FC(F)(I)C(F)(F)C(F)(F)C(F)(F)C(F)(F)C(F)(F)C(F)(F)C(F)(F)I [PFODI, Hexadecafluoro-1,8-diiodooctane]", "log10(EC50)", 0.46),
    ("FC(F)(F)C(F)(F)C(F)(F)C(F)(F)C(F)(F)C(F)(F)C(F)(F)C(F)(F)I [PFOI, 1-iodoperfluorooctane]", "log10(EC50)", 1.55),
    ("FC(F)(I)C(F)(F)C(F)(F)C(F)(F)I [PFBDI, Octafluoro-1,4-diiodobutane]", "log10(EC50)", 1.47),
    ("FC(F)(F)C(F)(F)C(F)(F)C(F)(F)C(F)(F)C(F)(F)I [PFHxI, 1-iodoperfluorohexane]", "log10(EC50)", 1.43),
]

----------
study_system: ER (Homo sapiens)
Construct: This cell line was stably transfected with the luciferase reporter gene and estrogen-responsive element derived from the Xenopus vitellogenin A2 gene; endogenous in cells; host or cells: MVLN cells (provided by J.P. Giesy)
Sequence (P03372 1-595): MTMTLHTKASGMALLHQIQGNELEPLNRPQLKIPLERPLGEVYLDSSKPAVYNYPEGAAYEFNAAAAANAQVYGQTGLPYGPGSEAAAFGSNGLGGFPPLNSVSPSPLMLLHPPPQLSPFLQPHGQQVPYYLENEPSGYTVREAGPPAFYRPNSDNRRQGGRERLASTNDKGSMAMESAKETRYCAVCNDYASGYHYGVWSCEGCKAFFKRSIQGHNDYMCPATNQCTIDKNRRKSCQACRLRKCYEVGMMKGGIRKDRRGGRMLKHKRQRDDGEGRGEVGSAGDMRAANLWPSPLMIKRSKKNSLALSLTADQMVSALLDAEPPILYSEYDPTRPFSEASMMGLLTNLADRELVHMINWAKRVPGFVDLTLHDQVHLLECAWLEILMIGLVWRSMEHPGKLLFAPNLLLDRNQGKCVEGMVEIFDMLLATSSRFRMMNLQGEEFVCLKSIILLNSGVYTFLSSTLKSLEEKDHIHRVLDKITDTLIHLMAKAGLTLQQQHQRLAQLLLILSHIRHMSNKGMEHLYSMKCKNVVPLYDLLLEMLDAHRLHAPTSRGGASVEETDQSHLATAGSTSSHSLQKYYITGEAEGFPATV
experimental_details: MVLN assay (estrogen-responsive luciferase reporter transactivation)
Assay type: cell-based
condition_info: footnote: ratio of EC50 of E2 to that of test compound; text: based on EC20
# reported MVLN assay Relative potency; entries follow

# structure_smiles, MVLN assay Relative potency
measured = [
    ("FC(F)(F)C(F)(F)C(F)(F)C(F)(F)C(F)(F)C(F)(F)C(F)(F)C(F)(F)I", "0.2 × 10^–6"),
    ("FC(F)(I)C(F)(F)C(F)(F)C(F)(F)C(F)(F)C(F)(F)I", "1.1 × 10^–5"),
    ("FC(F)(I)C(F)(F)C(F)(F)C(F)(F)C(F)(F)C(F)(F)C(F)(F)C(F)(F)I", "3.8 × 10^–6"),
    ("FC(F)(I)C(F)(F)C(F)(F)C(F)(F)I", "0.3 × 10^–6"),
    ("FC(F)(F)C(F)(F)C(F)(F)C(F)(F)C(F)(F)C(F)(F)I", "0.29 × 10^–6"),
]

Cited source for all entries: paper PMC3261944
